# system: recombinant human integrin αvβ8 ectodomain (human, UniProt P06756 31-992; P26012 43-681)
# Sequence (P06756 31-992 limits assumed, chain 1 of 2): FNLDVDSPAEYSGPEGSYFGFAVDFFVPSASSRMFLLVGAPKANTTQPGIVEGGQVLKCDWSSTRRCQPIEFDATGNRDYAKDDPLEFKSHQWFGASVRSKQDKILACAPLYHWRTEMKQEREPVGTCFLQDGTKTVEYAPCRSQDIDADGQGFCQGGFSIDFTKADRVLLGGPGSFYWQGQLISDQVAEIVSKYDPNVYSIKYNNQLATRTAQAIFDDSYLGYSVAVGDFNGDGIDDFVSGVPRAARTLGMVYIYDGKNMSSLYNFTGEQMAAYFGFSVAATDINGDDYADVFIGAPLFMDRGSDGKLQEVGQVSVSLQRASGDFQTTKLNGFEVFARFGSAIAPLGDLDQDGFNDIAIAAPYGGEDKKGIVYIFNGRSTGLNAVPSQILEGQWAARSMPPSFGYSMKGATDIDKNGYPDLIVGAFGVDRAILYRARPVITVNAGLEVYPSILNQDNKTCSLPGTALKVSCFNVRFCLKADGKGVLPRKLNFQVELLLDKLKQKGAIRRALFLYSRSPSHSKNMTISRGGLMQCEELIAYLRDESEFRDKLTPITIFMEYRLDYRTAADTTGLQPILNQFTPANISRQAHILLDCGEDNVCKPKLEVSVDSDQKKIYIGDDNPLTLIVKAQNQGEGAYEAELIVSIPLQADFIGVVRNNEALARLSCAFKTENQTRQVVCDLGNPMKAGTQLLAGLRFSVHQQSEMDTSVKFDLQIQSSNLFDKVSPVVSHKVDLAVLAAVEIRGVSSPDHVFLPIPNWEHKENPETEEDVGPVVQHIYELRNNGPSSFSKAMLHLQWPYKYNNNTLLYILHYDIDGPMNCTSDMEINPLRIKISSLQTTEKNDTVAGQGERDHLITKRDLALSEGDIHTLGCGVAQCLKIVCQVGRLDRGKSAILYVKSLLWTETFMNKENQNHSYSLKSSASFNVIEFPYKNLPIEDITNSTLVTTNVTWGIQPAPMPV
# Sequence (P26012 43-681 limits assumed, chain 2 of 2): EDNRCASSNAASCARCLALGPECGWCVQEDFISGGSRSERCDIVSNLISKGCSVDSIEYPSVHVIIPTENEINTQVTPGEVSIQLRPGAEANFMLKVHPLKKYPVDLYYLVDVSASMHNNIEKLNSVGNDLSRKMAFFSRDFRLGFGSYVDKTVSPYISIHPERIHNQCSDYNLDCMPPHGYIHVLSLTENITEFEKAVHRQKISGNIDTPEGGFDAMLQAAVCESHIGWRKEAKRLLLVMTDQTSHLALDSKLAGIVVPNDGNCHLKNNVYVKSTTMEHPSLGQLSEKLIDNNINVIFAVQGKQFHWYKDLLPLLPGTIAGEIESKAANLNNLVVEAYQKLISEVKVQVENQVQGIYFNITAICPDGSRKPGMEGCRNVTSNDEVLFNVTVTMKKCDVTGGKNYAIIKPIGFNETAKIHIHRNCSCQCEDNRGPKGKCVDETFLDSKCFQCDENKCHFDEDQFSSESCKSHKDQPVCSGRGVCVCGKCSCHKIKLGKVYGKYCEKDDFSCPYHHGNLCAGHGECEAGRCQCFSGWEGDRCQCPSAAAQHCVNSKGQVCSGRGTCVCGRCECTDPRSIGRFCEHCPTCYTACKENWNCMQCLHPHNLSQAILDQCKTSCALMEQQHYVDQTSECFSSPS
# protocol text: cell-based or functional assay
measured quantity: EC50 of inhibition of αvβ8-mediated TGF-β activation (nM)
Respond with the bare value in nM.

H3.C12, human IgG4 (antibody, V domains shown) VH: QVQLVQSGAEVKKPGASVKVSCKVSGYTLTEQSMHWVRQAPGKGLEWMGRINTETGEPTYAQKFQGRVTMTQDTSTDTAYMELSSLRSEDTAVYFCAIFYYGRDTWGQGTTVTVSS VL: EIVMTQSPATLSVSPGERVTMSCRSSQSLLHSRTRKNYLAWYQQKPGQAPRLLIYWASTRETGVPARFSGSGSGTEFTLTISSLQSEDFAVYYCKQSYNLLSFGQGTVLEIKR : 250
H4C8 human IgG4 (antibody, V domains shown, also called H4C8 IgG4) VH: QVQLVQSGAEVKKPGASVKVSCKVSGYTLTRQSMHWVRQAPGKGLEWMGRINTETGEPTYAQKFQGRVTMTQDTSTDTAYMELSSLRSEDTAVYFCAIFYYGRDTWGQGTTVTVSS VL: EIVMTQSPATLSVSPGERVTLSCRSSQSLLHSRSRKNYLAWYQQKPGQAPRLLIYWASTRETGVPARFSGSGSGTEFTLTISSLQSEDFAVYYCKQSYNLLSFGQGTKVEIKR : 100
HuC6D4 IgG2a (antibody, V domains shown) VH: QIQLVQSGAEVKKPGASVKISCKASGYTFTDYSMHWVRQAPGQGLEWVARINTETGEPTFADDFRGRFTVTLDTSTSTAYLEIRSLRSDDTAVYFCAIFYYGRDTWGQGTTLTVSS VL: EIVMTQSPATLSVSPGERVTMSCKSSQSLLNSRSRKNYLAWYQQKPGQAPRLLIYWASTRESGVPARFSGSGSGTEFTLTISSVQSEDFAVYYCKQSYNLLSFGQGTVLEIKR : 230

Consider the additional binder presented here.
Return reported EC50 of inhibition of αvβ8-mediated TGF-β activation. Input binder: H4C8m (H4C8 with non-humanized, murine VL Fr4), human IgG4 (antibody, V domains shown) VH: QVQLVQSGAEVKKPGASVKVSCKVSGYTLTRQSMHWVRQAPGKGLEWMGRINTETGEPTYAQKFQGRVTMTQDTSTDTAYMELSSLRSEDTAVYFCAIFYYGRDTWGQGTTVTVSS VL: EIVMTQSPATLSVSPGERVTLSCRSSQSLLHSRSRKNYLAWYQQKPGQAPRLLIYWASTRETGVPARFSGSGSGTEFTLTISSLQSEDFAVYYCKQSYNLLSFGQGTVLEIKR 300
